Each entry below lists one item and its recorded pEC50 value.
MEASURED ON: T1, cynomolgus monkey CD40 on cells (cynomolgus monkey, UniProt G7PG38 21-278)
T1 construct: also called cyCD40; CHO-K1/cyCD40
ASSAY METHOD TEXT: FACS, CHO-K1/cyCD40 cells
Description: Flow cytometry (FACS) was used to detect the binding ability of the CD40 antibody to cells, such as, CHO-K1/hCD40 highly expressing human CD40 (constructed by Beijing Kyinno Biotechnology), CHO-K1/cyCD40 highly expressing cynomolgus monkey CD40 (constructed by Beijing Kyinno Biotechnology) and lymphoma cell highly expressing human CD40, Raji (ATCC, #CCL-86). […]
# pEC50 = -log10(concentration in molar units)

The examples below pair each entry with its known result.
BINDER	OBSERVED RESULT
PR006516 (antibody, human IgG1, kappa, V domains shown, PR003379 variant L:S93H; human IgG1 L234A, L235A, G237A) VH: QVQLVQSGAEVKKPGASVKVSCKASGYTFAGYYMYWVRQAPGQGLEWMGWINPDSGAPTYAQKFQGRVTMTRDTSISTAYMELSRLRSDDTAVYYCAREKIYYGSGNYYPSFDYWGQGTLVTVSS VL: DIQLTQSPSFLSASVGDRVTITCRASQGISSYLAWYQQKPGKAPKLLIYAASTLQSGVPSRFSGSGSGTEFTLTISSLQPEDFATYYCQQLNHYPWTFGQGTKVEIKR	8.28
PR006513 (antibody, human IgG1, kappa, V domains shown, PR003379 variant L:S93Q; human IgG1 L234A, L235A, G237A) VH: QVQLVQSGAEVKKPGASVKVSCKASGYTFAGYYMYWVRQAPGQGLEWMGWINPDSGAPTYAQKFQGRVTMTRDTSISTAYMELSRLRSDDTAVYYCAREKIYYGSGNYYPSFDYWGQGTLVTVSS VL: DIQLTQSPSFLSASVGDRVTITCRASQGISSYLAWYQQKPGKAPKLLIYAASTLQSGVPSRFSGSGSGTEFTLTISSLQPEDFATYYCQQLNQYPWTFGQGTKVEIKR	8.45

// below: pEC50 requested for another binder
Measured pEC50 of PR006504 (antibody, human IgG1, kappa, V domains shown, PR003379 variant L:N92V; human IgG1 L234A, L235A, G237A) VH: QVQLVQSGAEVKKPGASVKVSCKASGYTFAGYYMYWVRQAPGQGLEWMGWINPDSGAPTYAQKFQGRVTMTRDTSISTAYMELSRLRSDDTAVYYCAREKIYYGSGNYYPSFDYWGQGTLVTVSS VL: DIQLTQSPSFLSASVGDRVTITCRASQGISSYLAWYQQKPGKAPKLLIYAASTLQSGVPSRFSGSGSGTEFTLTISSLQPEDFATYYCQQLVSYPWTFGQGTKVEIKR : 8.43
